Tested on: Danio rerio embryo
Assay: EC20 Bladder size_Decrease; higher = less potent
Details: exposure time: 4 dpf

{"columns": ["compound", "EC20 Bladder size Decrease, µM"],
 "data": [
  ["CC1=C(/C=C/C(C)=C/C=C/C(C)=C/C(=O)O)C(C)(C)CCC1 [all-trans retinoic acid]", 0.012],
  ["CNCCC=C1c2ccccc2CCc2ccccc21", 4.76],
  ["CCO/N=C(\\CC)C1=C(O)CC(c2c(C)cc(C)cc2C)CC1=O (centres undefined)", 51.9],
  ["C[C@@H]1C[C@H]2[C@@H]3CCC4=CC(=O)C=C[C@]4(C)[C@@]3(F)[C@@H](O)C[C@]2(C)[C@@]1(O)C(=O)CO", 2.7],
  ["CSc1nc2cc(Cl)c(Oc3cccc(Cl)c3Cl)cc2[nH]1", 0.475],
  ["Cc1cc2c(s1)Nc1ccccc1N=C2N1CCN(C)CC1", 7.84],
  ["CC(C)(C)C(O)C(Oc1ccc(Cl)cc1)n1cncn1 (centres undefined)", 20.2],
  ["CCCNCC(O)COc1ccccc1C(=O)CCc1ccccc1 (centres undefined)", 7.09],
  ["CCOC(=O)N1CCC(=C2c3ccc(Cl)cc3CCc3cccnc32)CC1", 0.201]
]}

----------
Tested on: Danio rerio embryo
Assay: EC20 Eye-jaw distance_Decrease; higher = less potent
Conditions: exposure time: 4 dpf
Everything with EC20 Eye-jaw distance Decrease lower than 3 µM is not fulfilled; everything else, including exactly 3 µM, is fulfilled.

{"columns": ["compound", "class"],
 "data": [
  ["CC1(C)O[C@@H]2[C@@H](CO[C@@]3(COS(N)(=O)=O)OC(C)(C)O[C@@H]23)O1 [Topiramate]", "fulfilled"],
  ["COC(=O)Nc1nc2cc(Sc3ccccc3)ccc2[nH]1", "not fulfilled"],
  ["C[Si](Cn1cncn1)(c1ccc(F)cc1)c1ccc(F)cc1", "not fulfilled"],
  ["CC(C)(C)C(O)/C(=C/c1ccc(Cl)cc1Cl)n1cncn1 (stereo not given)", "not fulfilled"],
  ["Cc1ccc(-c2cc(C(F)(F)F)nn2-c2ccc(S(N)(=O)=O)cc2)cc1", "fulfilled"]
]}

----------
# EC10 Bladder size Decrease values compiled below
System: Danio rerio embryo
Assay: EC10 Bladder size_Decrease; higher = less potent
Settings: exposure time: 4 dpf

{"columns": ["compound", "EC10 Bladder size Decrease"],
 "data": [
  ["CC1=C(/C=C/C(C)=C/C=C/C(C)=C/C(=O)O)C(C)(C)CCC1 [all-trans retinoic acid]", "11 nM"],
  ["CN(Cc1cnc2nc(N)nc(N)c2n1)c1ccc(C(=O)N[C@@H](CCC(=O)O)C(=O)O)cc1 [Methotrexate]", "95700 nM"],
  ["COC(=O)Nc1nc2cc(Sc3ccccc3)ccc2[nH]1", "45 nM"],
  ["CCCCOC(=O)[C@@H](C)Oc1ccc(Oc2ccc(C(F)(F)F)cn2)cc1", "780 nM"],
  ["CCO/N=C(\\CC)C1=C(O)CC(c2c(C)cc(C)cc2C)CC1=O (stereo not given)", "47100 nM"]
]}

----------
Tested on: Danio rerio embryo
Test: EC20 Any effect; higher = less potent
Details: exposure time: 4 dpf
Given measured EC20 Any effect, output Satisfied if it is greater than or equal to 40 µM and Not satisfied if not.

{"columns": ["compound", "studyTarget", "class"],
 "data": [
  ["CCOC(=O)N1CCC(=C2c3ccc(Cl)cc3CCc3cccnc32)CC1", "Danio rerio embryo", "Not satisfied"],
  ["CNCCC=C1c2ccccc2CCc2ccccc21", "Danio rerio embryo", "Not satisfied"],
  ["CC(=O)Nc1ccc(O)cc1", "Danio rerio embryo", "Satisfied"],
  ["CC1(C)O[C@@H]2[C@@H](CO[C@@]3(COS(N)(=O)=O)OC(C)(C)O[C@@H]23)O1 [Topiramate]", "Danio rerio embryo", "Not satisfied"],
  ["CCC(=O)OCC(=O)[C@@]1(OC(=O)CC)[C@@H](C)C[C@H]2[C@@H]3CCC4=CC(=O)C=C[C@]4(C)[C@@]3(F)[C@@H](O)C[C@@]21C [betamethasone dipropionate]", "Danio rerio embryo", "Not satisfied"]
]}

----------
System: Danio rerio embryo
Assay: EC20 Curvature_Increase; higher = less potent
Conditions: exposure time: 4 dpf

{"columns": ["compound", "studyTarget", "EC20 Curvature Increase [µM]"],
 "data": [
  ["CCCCC(O)(Cn1cncn1)c1ccc(Cl)cc1Cl (centres undefined)", "Danio rerio embryo", 13.7],
  ["CCO/N=C(\\CC)C1=C(O)CC(c2c(C)cc(C)cc2C)CC1=O (centres undefined)", "Danio rerio embryo", 90.7],
  ["COC(=O)Nc1nc2ccccc2[nH]1", "Danio rerio embryo", 2.88],
  ["CC(C)(C)C(O)C(Oc1ccc(Cl)cc1)n1cncn1 (centres undefined)", "Danio rerio embryo", 82.4]
]}

----------
Tested on: Danio rerio embryo
Assay: EC20 Yolk sac size_Increase; higher = less potent
Settings: exposure time: 4 dpf
readout: EC20 Yolk sac size Increase (µM)

{"columns": ["molecule", "readout", "unit", "testValue"],
 "data": [
  ["CN(Cc1cnc2nc(N)nc(N)c2n1)c1ccc(C(=O)N[C@@H](CCC(=O)O)C(=O)O)cc1 [Methotrexate]", "EC20 Yolk sac size Increase", "µM", 44.7],
  ["CC1(C)OC(=O)C(OCC2CC2)=C1c1ccc(S(C)(=O)=O)cc1", "EC20 Yolk sac size Increase", "µM", 68.9],
  ["CCCNCC(O)COc1ccccc1C(=O)CCc1ccccc1 (centres undefined)", "EC20 Yolk sac size Increase", "µM", 18.4],
  ["CC1=C(/C=C/C(C)=C/C=C/C(C)=C/C(=O)O)C(C)(C)CCC1 [all-trans retinoic acid]", "EC20 Yolk sac size Increase", "µM", 0.036]
]}

----------
System: Danio rerio embryo
Assay: EC10 Curvature_Increase; higher = less potent
Settings: exposure time: 4 dpf
readout: EC10 Curvature Increase (µM)

{"columns": ["compound", "testValue"],
 "data": [
  ["Cc1ccc(-c2cc(C(F)(F)F)nn2-c2ccc(S(N)(=O)=O)cc2)cc1", 12.3],
  ["C[Si](Cn1cncn1)(c1ccc(F)cc1)c1ccc(F)cc1", 2.07],
  ["CN(Cc1cnc2nc(N)nc(N)c2n1)c1ccc(C(=O)N[C@@H](CCC(=O)O)C(=O)O)cc1 [Methotrexate]", 172],
  ["CC1=C(/C=C/C(C)=C/C=C/C(C)=C/C(=O)O)C(C)(C)CCC1 [all-trans retinoic acid]", 0.006],
  ["CC(=O)Nc1ccc(O)cc1", 3130],
  ["CC(C)(C)C(O)/C(=C/c1ccc(Cl)cc1Cl)n1cncn1 (stereo not drawn)", 2.76],
  ["CCCCC(O)(Cn1cncn1)c1ccc(Cl)cc1Cl (stereo not drawn)", 11.8],
  ["CC1(C)O[C@@H]2[C@@H](CO[C@@]3(COS(N)(=O)=O)OC(C)(C)O[C@@H]23)O1 [Topiramate]", 455],
  ["O=C(O)CCc1nc(-c2ccccc2)c(-c2ccccc2)o1", 21.8],
  ["CCO/N=C(\\CC)C1=C(O)CC(c2c(C)cc(C)cc2C)CC1=O (stereo not drawn)", 85.2],
  ["COC(=O)Nc1nc2ccccc2[nH]1", 2.68],
  ["CC(C)(C)C(O)C(Oc1ccc(Cl)cc1)n1cncn1 (stereo not drawn)", 67.2],
  ["COC(=O)Nc1nc2cc(Sc3ccccc3)ccc2[nH]1", 0.062]
]}

----------
Test system: Danio rerio embryo
Assay: EC50 Body length_Decrease
Settings: exposure time: 2 dpf

{"columns": ["compound", "unit", "EC50 Body length Decrease"],
 "data": [
  ["O=C(O)CCc1nc(-c2ccccc2)c(-c2ccccc2)o1", "µM", 38],
  ["COC(=O)Nc1nc2ccccc2[nH]1", "µM", 3.04],
  ["COC(=O)Nc1nc2cc(Sc3ccccc3)ccc2[nH]1", "µM", 0.045],
  ["CCOC(=O)N1CCC(=C2c3ccc(Cl)cc3CCc3cccnc32)CC1", "µM", 7.83],
  ["COc1cccc2c1C(=O)c1c(O)c3c(c(O)c1C2=O)C[C@@](O)(C(C)=O)C[C@@H]3O[C@H]1C[C@H](N)[C@H](O)[C@H](C)O1", "µM", 106],
  ["CC(=O)Nc1ccc(O)cc1", "µM", 3990],
  ["Cc1ccc(-c2cc(C(F)(F)F)nn2-c2ccc(S(N)(=O)=O)cc2)cc1", "µM", 25.2],
  ["CCCCOC(=O)[C@@H](C)Oc1ccc(Oc2ccc(C(F)(F)F)cn2)cc1", "µM", 3.7],
  ["CN(Cc1cnc2nc(N)nc(N)c2n1)c1ccc(C(=O)N[C@@H](CCC(=O)O)C(=O)O)cc1 [Methotrexate]", "µM", 241],
  ["CSc1nc2cc(Cl)c(Oc3cccc(Cl)c3Cl)cc2[nH]1", "µM", 1.27],
  ["CC1(C)OC(=O)C(OCC2CC2)=C1c1ccc(S(C)(=O)=O)cc1", "µM", 109],
  ["CCCNCC(O)COc1ccccc1C(=O)CCc1ccccc1 (stereo not given)", "µM", 79.5],
  ["CCCCC(O)(Cn1cncn1)c1ccc(Cl)cc1Cl (stereo not given)", "µM", 33.4],
  ["CC(C)(C)C(O)/C(=C/c1ccc(Cl)cc1Cl)n1cncn1 (stereo not given)", "µM", 8.59],
  ["CC(C)(C)C(O)C(Oc1ccc(Cl)cc1)n1cncn1 (stereo not given)", "µM", 169],
  ["CCO/N=C(\\CC)C1=C(O)CC(c2c(C)cc(C)cc2C)CC1=O (stereo not given)", "µM", 66.2],
  ["CC1=C(/C=C/C(C)=C/C=C/C(C)=C/C(=O)O)C(C)(C)CCC1 [all-trans retinoic acid]", "µM", 0.036],
  ["O=C(O)Cc1ccccc1Nc1c(Cl)cccc1Cl", "µM", 14.2],
  ["CNCCC=C1c2ccccc2CCc2ccccc21", "µM", 40.6],
  ["C[Si](Cn1cncn1)(c1ccc(F)cc1)c1ccc(F)cc1", "µM", 10.3]
]}
